- Test Summary: Half life in Sprague-Dawley rat at 1 mg/kg,iv or 3 mg/kg,po measured upto 24 hrs by LC-MS/MS analysis
- Assay type: ADME, organism-based
- Applied Conditions: in vivo

- Smiles Notation: "COC[C@H](c1cnn2cc([C@@H](NC(=O)/C(F)=C\\C3CC3)C3CCC(F)(F)CC3)nc2c1)N1C[C@@H](C(F)(F)F)NC1=O"
  half-life, h: 2.6

----------
- Test Summary: Apparent permeability coefficient of the compound across apical to basolateral side in dog MDCK cells by high-throughput analysis
- Assay type: ADME, cell-based, Canis lupus familiaris
Form field: Papp A→B (one value per entry).

- Smiles Notation: "C/C=C(\\F)C(=O)N[C@H](c1cn2ncc([C@@H](COC)N3C[C@@H](C(F)(F)F)NC3=O)cc2n1)C1CCC(F)(F)CC1"
  Papp A→B, ×10⁻⁶ cm/s: 9.7
- Smiles Notation: "COC[C@H](c1cnn2cc([C@@H](Nc3nnc(C(F)(F)F)o3)C3CCC(F)(F)CC3)nc2c1)N1C[C@@H](C(F)(F)F)NC1=O"
  Papp A→B, ×10⁻⁶ cm/s: 8
- Smiles Notation: "COC[C@H](c1cnn2cc([C@@H](Nc3ncc(C4CC4)o3)C3CCC(F)(F)CC3)nc2c1)N1C[C@@H](C(F)(F)F)NC1=O"
  Papp A→B, ×10⁻⁶ cm/s: 17
- Smiles Notation: "COC[C@H](c1cnn2cc([C@@H](Nc3cc(OC)ncn3)C3CCC(F)(F)CC3)nc2c1)N1C[C@@H](C(F)(F)F)NC1=O"
  Papp A→B, ×10⁻⁶ cm/s: 11
- Smiles Notation: "COC[C@H](c1cnn2cc([C@@H](Nc3nnc(C4CC4)o3)C3CCC(F)(F)CC3)nc2c1)N1C[C@@H](C(F)(F)F)NC1=O"
  Papp A→B, ×10⁻⁶ cm/s: 1.7
- Smiles Notation: "COC[C@H](c1cnn2cc([C@@H](Nc3nnc(C(C)(F)F)o3)C3CCC(F)(F)CC3)nc2c1)N1C[C@@H](C(F)(F)F)NC1=O"
  Papp A→B, ×10⁻⁶ cm/s: 3.6
- Smiles Notation: "COC[C@H](c1cnn2cc([C@@H](Nc3noc(C(C)(F)F)n3)C3CCC(F)(F)CC3)nc2c1)N1C[C@@H](C(F)(F)F)NC1=O"
  Papp A→B, ×10⁻⁶ cm/s: 20
- Smiles Notation: "COC[C@H](c1cnn2cc([C@@H](NC(=O)/C(F)=C\\C3(F)CC3)C3CCC(F)(F)CC3)nc2c1)N1C[C@@H](C(F)(F)F)NC1=O"
  Papp A→B, ×10⁻⁶ cm/s: 12
- Smiles Notation: "CC(F)(F)c1nnc(N[C@H](c2cn3ncc([C@@H](C4CC4)N4C[C@@H](C(F)(F)F)NC4=O)cc3n2)C2CCC(F)(F)CC2)o1"
  Papp A→B, ×10⁻⁶ cm/s: 10
- Smiles Notation: "COC[C@H](c1cnn2cc([C@@H](Nc3nnc(C)s3)C3CCC(F)(F)CC3)nc2c1)N1C[C@@H](C(F)(F)F)NC1=O"
  Papp A→B, ×10⁻⁶ cm/s: 1.3
- Smiles Notation: "COC[C@H](c1cnn2cc([C@@H](Nc3nnc(C)o3)C3CCC(F)(F)CC3)nc2c1)N1C[C@@H](C(F)(F)F)NC1=O"
  Papp A→B, ×10⁻⁶ cm/s: 0.5
- Smiles Notation: "COC[C@H](c1cnn2cc([C@@H](Nc3nnc(C)n3C)C3CCC(F)(F)CC3)nc2c1)N1C[C@@H](C(F)(F)F)NC1=O"
  Papp A→B, ×10⁻⁶ cm/s: 0.4
- Smiles Notation: "COC[C@H](c1cnn2cc([C@@H](NC(=O)/C(F)=C\\C3CC3)C3CCC(F)(F)CC3)nc2c1)N1C[C@@H](C(F)(F)F)NC1=O"
  Papp A→B, ×10⁻⁶ cm/s: 26
- Smiles Notation: "COC[C@H](c1cnn2cc([C@@H](NC(=O)C(C)(F)F)C3CCC(F)(F)CC3)nc2c1)N1C[C@@H](C(F)(F)F)NC1=O"
  Papp A→B, ×10⁻⁶ cm/s: 5.5

----------
This listing pairs compounds with measured AUC.
- Test Summary: AUC in Sprague-Dawley rat at 3 mg/kg,po measured upto 24 hrs by LC-MS/MS analysis
- Assay type: ADME, organism-based
- Applied Conditions: in vivo, po, 3 mg/kg, 24 h

- Smiles Notation: "COC[C@H](c1cnn2cc([C@@H](NC(=O)/C(F)=C\\C3(F)CC3)C3CCC(F)(F)CC3)nc2c1)N1C[C@@H](C(F)(F)F)NC1=O"
  Uom: "µM·h"
  AUC: 0.013
- Smiles Notation: "COC[C@H](c1cnn2cc([C@@H](NC(=O)/C(F)=C\\C3CC3)C3CCC(F)(F)CC3)nc2c1)N1C[C@@H](C(F)(F)F)NC1=O"
  Uom: "µM·h"
  AUC: 0.024
- Smiles Notation: "COC[C@H](c1cnn2cc([C@@H](Nc3nnc(C(C)(F)F)o3)C3CCC(F)(F)CC3)nc2c1)N1C[C@@H](C(F)(F)F)NC1=O"
  Uom: "µM·h"
  AUC: 0.946
- Smiles Notation: "C/C=C(/F)C(=O)N[C@H](c1cn2ncc([C@@H](COC)N3C[C@@H](C(F)(F)F)NC3=O)cc2n1)C1CCC(F)(F)CC1"
  Uom: "µM·h"
  AUC: 0.053
- Smiles Notation: "C=C(F)C(=O)N[C@H](c1cn2ncc([C@@H](COC)N3C[C@@H](C(F)(F)F)NC3=O)cc2n1)C1CCC(F)(F)CC1"
  Uom: "µM·h"
  AUC: 0.025

----------
- System Name: Bile salt export pump (Homo sapiens)
- Sequence (O95342 whole entry): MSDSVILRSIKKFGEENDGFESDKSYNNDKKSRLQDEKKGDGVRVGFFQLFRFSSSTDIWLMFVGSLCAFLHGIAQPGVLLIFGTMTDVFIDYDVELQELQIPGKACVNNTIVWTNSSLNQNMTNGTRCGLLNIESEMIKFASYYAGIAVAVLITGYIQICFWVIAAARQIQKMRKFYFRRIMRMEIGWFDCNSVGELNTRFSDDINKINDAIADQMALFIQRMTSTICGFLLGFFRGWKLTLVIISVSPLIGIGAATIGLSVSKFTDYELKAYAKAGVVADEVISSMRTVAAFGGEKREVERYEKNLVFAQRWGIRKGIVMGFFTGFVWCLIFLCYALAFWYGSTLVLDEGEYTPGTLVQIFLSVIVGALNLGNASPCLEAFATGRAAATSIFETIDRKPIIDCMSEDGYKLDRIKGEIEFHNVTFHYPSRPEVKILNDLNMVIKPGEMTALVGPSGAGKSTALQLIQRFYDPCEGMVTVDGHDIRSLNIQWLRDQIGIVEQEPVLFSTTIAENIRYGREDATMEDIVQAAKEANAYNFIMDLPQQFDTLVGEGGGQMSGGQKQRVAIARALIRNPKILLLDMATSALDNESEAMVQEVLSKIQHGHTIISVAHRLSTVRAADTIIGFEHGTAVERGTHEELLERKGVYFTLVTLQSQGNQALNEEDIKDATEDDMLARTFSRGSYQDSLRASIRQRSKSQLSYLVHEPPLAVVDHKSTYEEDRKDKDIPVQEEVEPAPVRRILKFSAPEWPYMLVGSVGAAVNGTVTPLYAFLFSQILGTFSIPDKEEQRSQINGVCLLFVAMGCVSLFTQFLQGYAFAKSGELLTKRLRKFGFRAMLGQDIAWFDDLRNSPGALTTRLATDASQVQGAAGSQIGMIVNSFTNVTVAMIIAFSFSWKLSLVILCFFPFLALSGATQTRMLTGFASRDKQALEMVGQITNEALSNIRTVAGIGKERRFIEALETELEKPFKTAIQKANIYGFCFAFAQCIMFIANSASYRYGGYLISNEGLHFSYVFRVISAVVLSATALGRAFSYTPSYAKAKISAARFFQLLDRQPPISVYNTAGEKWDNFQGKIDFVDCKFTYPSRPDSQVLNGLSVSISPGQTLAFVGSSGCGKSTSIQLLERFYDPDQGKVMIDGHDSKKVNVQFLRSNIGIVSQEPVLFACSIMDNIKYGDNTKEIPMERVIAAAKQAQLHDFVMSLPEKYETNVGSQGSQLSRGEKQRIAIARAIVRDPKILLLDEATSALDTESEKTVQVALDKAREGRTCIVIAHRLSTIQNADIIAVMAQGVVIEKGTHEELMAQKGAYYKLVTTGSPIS
Test Readout: IC50 (µM)

- Smiles Notation: "COC[C@H](c1cnn2cc([C@@H](NC(=O)/C(F)=C\\C3CC3)C3CCC(F)(F)CC3)nc2c1)N1C[C@@H](C(F)(F)F)NC1=O"
  Uom: "µM"
  Measured Result: 19

----------
- Test Summary: Half life in Beagle dog at 0.1 mg/kg,iv or 0.3 mg/kg,po measured upto 24 hrs by LC-MS/MS analysis
- Format: ADME, organism-based, Canis lupus familiaris
- Applied Conditions: in vivo
Test Readout: half-life (min)

- Smiles Notation: "COC[C@H](c1cnn2cc([C@@H](NC(=O)/C(F)=C\\C3CC3)C3CCC(F)(F)CC3)nc2c1)N1C[C@@H](C(F)(F)F)NC1=O"
  Measured Result: 498

----------
- Test Summary: Volume of distribution at steady state in Beagle dog at 0.1 mg/kg,iv or 0.3 mg/kg,po measured upto 24 hrs by LC-MS/MS analysis
- Type: ADME, organism-based, Canis lupus familiaris
- Applied Conditions: in vivo, read-out: Vdss

- Smiles Notation: "COC[C@H](c1cnn2cc([C@@H](NC(=O)/C(F)=C\\C3CC3)C3CCC(F)(F)CC3)nc2c1)N1C[C@@H](C(F)(F)F)NC1=O"
  Vd: "3.7 L/kg"

----------
- Test Summary: Metabolic stability in human liver microsomes assessed as intrinsic clearance
- Type: ADME, Microsome
- Applied Conditions: read-out: CLH

- Smiles Notation: "COC[C@H](c1cnn2cc([C@@H](Nc3cc(OC)ncn3)C3CCC(F)(F)CC3)nc2c1)N1C[C@@H](C(F)(F)F)NC1=O"
  microsomal CLint (µL/min/mg): 31
- Smiles Notation: "COC[C@H](c1cnn2cc([C@@H](Nc3ncc(C4CC4)o3)C3CCC(F)(F)CC3)nc2c1)N1C[C@@H](C(F)(F)F)NC1=O"
  microsomal CLint (µL/min/mg): 261
- Smiles Notation: "COC[C@H](c1cnn2cc([C@@H](NC(=O)/C(F)=C\\C3(F)CC3)C3CCC(F)(F)CC3)nc2c1)N1C[C@@H](C(F)(F)F)NC1=O"
  microsomal CLint (µL/min/mg): 164
- Smiles Notation: "COC[C@H](c1cnn2cc([C@@H](NC(=O)/C(F)=C3\\CCOC3)C3CCC(F)(F)CC3)nc2c1)N1C[C@@H](C(F)(F)F)NC1=O"
  microsomal CLint (µL/min/mg): 50

----------
- Test Summary: Oral bioavailability in Sprague-Dawley rat at 3 mg/kg measured upto 24 hrs by LC-MS/MS analysis
- Type: ADME, organism-based
- Applied Conditions: Sprague-Dawley, in vivo
Test Readout: bioavailability (%)

- Smiles Notation: "COC[C@H](c1cnn2cc([C@@H](Nc3nnc(C4CC4)o3)C3CCC(F)(F)CC3)nc2c1)N1C[C@@H](C(F)(F)F)NC1=O"
  Uom: "%"
  Measured Result: 2.5
- Smiles Notation: "COC[C@H](c1cnn2cc([C@@H](NC(=O)c3nonc3C)C3CCC(F)(F)CC3)nc2c1)N1C[C@@H](C(F)(F)F)NC1=O"
  Uom: "%"
  Measured Result: 119
- Smiles Notation: "COC[C@H](c1cnn2cc([C@@H](NC(=O)/C(F)=C3\\CCOC3)C3CCC(F)(F)CC3)nc2c1)N1C[C@@H](C(F)(F)F)NC1=O"
  Uom: "%"
  Measured Result: 4
- Smiles Notation: "CC(F)(F)c1nnc(N[C@H](c2cn3ncc([C@@H](C4CC4)N4C[C@@H](C(F)(F)F)NC4=O)cc3n2)C2CCC(F)(F)CC2)o1"
  Uom: "%"
  Measured Result: 41

Ref: ChEMBL document CHEMBL5579899
